- Target Entity: EP4 (Homo sapiens, UniProt P35408)
- Sequence (P35408 whole entry): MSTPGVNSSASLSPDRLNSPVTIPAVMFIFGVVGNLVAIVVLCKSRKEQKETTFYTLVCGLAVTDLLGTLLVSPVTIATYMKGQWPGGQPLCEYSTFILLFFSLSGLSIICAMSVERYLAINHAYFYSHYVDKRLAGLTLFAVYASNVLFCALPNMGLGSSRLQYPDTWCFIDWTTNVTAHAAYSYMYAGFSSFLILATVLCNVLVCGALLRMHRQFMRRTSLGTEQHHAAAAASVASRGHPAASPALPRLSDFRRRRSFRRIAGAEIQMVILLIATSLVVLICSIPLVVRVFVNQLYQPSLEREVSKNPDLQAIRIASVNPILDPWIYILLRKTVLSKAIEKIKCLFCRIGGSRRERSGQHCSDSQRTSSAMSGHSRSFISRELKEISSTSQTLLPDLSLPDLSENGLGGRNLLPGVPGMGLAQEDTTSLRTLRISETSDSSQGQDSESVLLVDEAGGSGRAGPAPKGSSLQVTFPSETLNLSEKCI
- Assay Name: EP4 flipr functional assay
Recorded Metric: EC50

Tested on EP4 (Homo sapiens, UniProt P35408): `O=C(O)c1ccc(COC[C@H]2CCC(=O)N2Cc2cc(Cl)cc(Cl)c2)s1` . Observed EC50: > 10 µM

* * *

- Target Entity: EP2 (Homo sapiens, UniProt P43116)
- Sequence (P43116 whole entry): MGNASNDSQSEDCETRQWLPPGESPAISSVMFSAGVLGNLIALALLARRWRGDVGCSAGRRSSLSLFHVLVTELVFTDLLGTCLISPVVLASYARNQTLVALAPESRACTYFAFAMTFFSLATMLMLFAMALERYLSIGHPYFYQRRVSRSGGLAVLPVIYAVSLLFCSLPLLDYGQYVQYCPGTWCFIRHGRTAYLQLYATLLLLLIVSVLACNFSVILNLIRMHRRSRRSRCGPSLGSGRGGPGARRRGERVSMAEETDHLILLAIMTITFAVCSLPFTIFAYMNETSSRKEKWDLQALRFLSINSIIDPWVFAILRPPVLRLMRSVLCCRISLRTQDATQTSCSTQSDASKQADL
Recorded Metric: Ki (nM)
Unit nM implied. Number only.

Tested on EP2 (Homo sapiens, UniProt P43116): `O=C(O)c1ccc(COC[C@H]2CCC(=O)N2Cc2cc(Cl)cc(Cl)c2)s1` . Observed Ki: 2570

* * *

- Target Entity: EP2 (Homo sapiens, UniProt P43116)
- Assay Name: EP2 flipr functional assay
- Assay type: cell-based
Recorded Metric: pEC50
Just so you know, pEC50 here is -log10 of the concentration in molar units; reply with that number alone.

Measured pEC50, `O=C(O)c1ccc(COC[C@H]2CCC(=O)N2Cc2cc(Cl)cc(Cl)c2)s1` : 5.07

* * *

- Target Entity: EP2 (Homo sapiens, UniProt P43116)
- Assay Name: EP2 cAMP assay
- Type: cell-based
Recorded Metric: EC50 (nM)
Unit nM implied. Number only.

Measured EC50, `O=C(O)c1ccc(COC[C@H]2CCC(=O)N2Cc2cc(Cl)cc(Cl)c2)s1` : 81

* * *

- Target Entity: EP4 (Homo sapiens)
Recorded Metric: Ki (µM)
Unit µM implied. Number only.

Measured Ki, `O=C(O)c1ccc(COC[C@H]2CCC(=O)N2Cc2cc(Cl)cc(Cl)c2)s1` : 7.3

The reported numbers originate from patent US8362054B2.
